Test system: MDA-MB-231 breast
Experiment: NCI tumour cell line growth inhibition, 48 h
value.type: TGI

For orientation, consider the following solved cases.
>  <molecule>
CC(=O)/C(=C/N1CC(=O)NC1=S)C(=O)Nc1ccccc1C

>  <TGI>
> 100 µM

$$$$
>  <molecule>
CC1=C/C(=N\NS(=O)(=O)c2ccc([N+](=O)[O-])cc2)CC(C)(C)C1

>  <TGI>
> 100 µM

$$$$
>  <molecule>
Cc1ccc(S(=O)(=O)NC(Cc2ccccc2)C(=O)CCl)cc1 (centres undefined)

>  <TGI>
27.3 µM

$$$$

Lab note: measured TGI of CCOC(=O)C1=NN(c2ccc(C)cc2)C2(c3ccccc3)C=C(c3ccccc3)N(C)CCN12 (centres undefined) was > 100 µM

Entry COc1ccc2c(c1)C(=O)c1c-2n(CCCN=[N+]=[N-])c(=O)c2cc([N+](=O)[O-])ccc12 , TGI reported as > 100 µM

For record C=C(C)[C@@]12C[C@H](OC(=O)[C@H](O)[C@@H](NC(=O)c3ccccc3)c3ccccc3)C(C)=C1[C@@H](OC(C)=O)C(=O)[C@@]1(C)C([C@@H]2OC(=O)c2cc(F)cc(F)c2)C2(OC(C)=O)CO[C@@H]2C[C@@H]1O (some centres undefined) the listed TGI is 2.22 µM

According to the records, this molecule FC(F)(F)c1cccc(Oc2ccc(Nc3ncnc4ccc(OCCCN5CCOCC5)cc34)cc2Cl)c1 displays TGI of 3.72 µM

Record COc1c(C)c(C/C=C(\C)CC/C=C(\C)CC/C=C(\C)CC/C=C(\C)CCC=C(C)C)c(OC)c(OC)c1OC . Reported TGI: > 100 µM

The molecule listed as COc1nc2c(c(=O)[nH]1)N=C(c1ccccc1)CC(c1ccccc1)N2 (centres undefined) has a reported TGI of 81.6 µM

====

System: CAKI-1 renal
Test: NCI tumour cell line growth inhibition, 48 h
value.type: TGI

Completed entries (count: 5):
>  <compound>
CCCCN(C)CC(C(C)=O)C(c1ccccc1)c1c(O)c2ccccc2oc1=O (centres undefined)

>  <target.of.assay>
CAKI-1 renal

>  <reported>
> 100 µM

$$$$
>  <compound>
COc1ccc2[nH]c3c(c2c1)CCc1c(OC)cccc1-3

>  <target.of.assay>
CAKI-1 renal

>  <reported>
> 100 µM

$$$$
>  <compound>
Cc1cn(C(CO)OC(CO)CN(O)C2C3CC4CC(C3)CC2C4)c(=O)[nH]c1=O (centres undefined)

>  <target.of.assay>
CAKI-1 renal

>  <reported>
> 100 µM

$$$$
>  <compound>
C[C@@H](c1ccccc1)N1C[C@@H](c2ccc3c(c2)OCO3)[C@@H]2C(=O)CCC[C@@H]21

>  <target.of.assay>
CAKI-1 renal

>  <reported>
> 100 µM

$$$$
>  <compound>
N#CC1(C#N)C(=O)c2ccncc2C1=O

>  <target.of.assay>
CAKI-1 renal

>  <reported>
> 100 µM

$$$$

Recorded TGI (compound Fc1ccccc1-c1cc(=S)c2cc3c(cc2[nH]1)OCO3 ): > 100 µM

TGI reported for this compound NS(=O)(=O)c1ccc(N=Nc2ccc(O)cc2)cc1 : > 100 µM

Record Cc1cn(CCCCOC(=O)NC(CCCN=C(N)N)C(=O)O)c(=O)[nH]c1=O (centres undefined) . Reported TGI: > 100 µM

Kindly note the recorded TGI for Cn1c2ccccc2c2c3c(c4c5ccccc5n(C)c4c21)C(=O)N(Cc1ccccc1)C3=O , which is > 100 µM

====

Test system: LOX IMVI melanoma
Experiment: NCI tumour cell line growth inhibition, 48 h
value.type: TGI

>  <compound>
CC(C)CC(C#CCCOC(=O)c1ccccc1)OC(=O)c1ccccc1 (stereo not given)

>  <reported>
> 10 µM

$$$$

Note to self: TGI recorded for COC(=O)C(/C(=N/N)C(=O)Nc1cc(Cl)ccc1Cl)c1nc2ccc([N+](=O)[O-])cc2[nH]c1=O (stereo not given) was > 100 µM

Per the record, CC1=C(C(=O)O)N2C(=O)[C@@H](NC(=O)C(c3ccccc3)N3CSC(=S)N(C(C)C)C3)C2SC1 (stereo not given in full) has TGI of > 100 µM

Entry Cc1cn(CC2(CO)CCC2)c(=O)[nH]c1=O — recorded TGI = > 100 µM

According to the records, this compound Cc1ccc(NC(=O)CCc2nnc3s/c(=C\C=C\c4ccccc4)c(=O)n23)cc1 displays TGI of > 86.8 µM

====

Test system: RPMI-8226 leukemia
Test: NCI tumour cell line growth inhibition, 48 h
value.type: TGI (µM)
The figure you give is taken to be in µM; do not add the unit.

Lab entry: RPMI-8226 leukemia assay, molecule O=C(Nc1ccc(Cl)cc1)c1cc(NCc2cc(O)ccc2O)ccc1O , TGI = 4.41

Case CSc1ccc(Cc2cc(C(C)(C)C)cc(C(C)(C)C)c2O)cc1 , RPMI-8226 leukemia, TGI recorded as 20.8

====

System: SF-295 CNS
Assay: NCI tumour cell line growth inhibition, 48 h; in the data active = GI50 below about 0.43 µM; inactive = the rest
Entry note: the call must match one of active, inactive

Solved cases (5 shown):
>  <compound.string>
N#C[S-].[Ce+3].c1ccc(-c2ccccn2)nc1.c1ccc(-c2ccccn2)nc1.c1ccc(-c2ccccn2)nc1

>  <label.value>
inactive

$$$$
>  <compound.string>
COc1cc(OCCCN2CCCC2)ccc1Nc1ncc(Cl)c(Nc2ccccc2P(C)(C)=O)n1

>  <label.value>
inactive

$$$$
>  <compound.string>
COc1cc(/C=C/C(=O)c2ccccc2O)ccc1OCCCOc1cc2c(cc1OC)C(=O)N1CCC[C@H]1C=N2

>  <label.value>
active

$$$$
>  <compound.string>
COC1=CC(c2ccc[nH]2)=N/C1=C\c1[nH]c(C)c(CC(=O)NCc2ccccc2)c1C

>  <label.value>
inactive

$$$$
>  <compound.string>
NC(CCl)=NCC12CC3CC(CC(C3)C1)C2

>  <label.value>
inactive

$$$$

Then there is this molecule:
Prompt: Could you check what this test reported for C=C[C@@H]1CCC/C=C/[C@@H]2C[C@H](O)C[C@H]2[C@H](O)/C=C/C(=O)O1 ?
Response: inactive

====

System: SK-MEL-2 melanoma
Test: NCI tumour cell line growth inhibition, 48 h
# key: entry, value: TGI

Previously resolved entries follow.
>  <compound>
CN(CCO)CCC1COc2ccccc2O1 (stereo unspecified)

>  <reported>
> 10 µM

$$$$
>  <compound>
Oc1cccc2cccnc12

>  <reported>
> 74.5 µM

$$$$
>  <compound>
O=c1cccccc1O

>  <reported>
> 100 µM

$$$$
>  <compound>
C/C(=N\N)C(CN1CCOCC1)C(c1ccccc1)c1c(O)c2ccccc2oc1=O (stereo unspecified)

>  <reported>
> 100 µM

$$$$
>  <compound>
O=C1/C(=C/c2ccc([N+](=O)[O-])cc2)CCCc2ccccc21

>  <reported>
> 100 µM

$$$$

Lab note: measured TGI of CCCCN(C)CC(C(C)=O)C(c1ccccc1)c1c(O)c2ccccc2oc1=O (stereo unspecified) was > 100 µM

// sample CC1=C(C(=O)O)N2C(=O)[C@@H](NC(=O)C(c3ccccc3)N3CSC(=S)N(C(C)C)C3)C2SC1 (stereo partly specified) , its TGI was > 100 µM

Per the record, Cc1cc(C)n(CN(CCCCO)Cn2nc(C)cc2C)n1 has TGI of 41.7 µM

====

Test system: SF-268 CNS
Experiment: NCI tumour cell line growth inhibition, 48 h
value.type: TGI (µM)
Provide only the numeric value, understood in µM.

# example entries with known answers
>  <compound.string>
COc1ccc2c(c1)C(=O)/C(=C/c1ccc(O)cc1)O2

>  <unit.annotation>
µM

>  <reported>
41.1

$$$$
>  <compound.string>
O=C(/C=C/c1ccc(-c2ccccc2)cc1)c1ccccc1

>  <unit.annotation>
µM

>  <reported>
70.1

$$$$
>  <compound.string>
Cc1cc(C)c([I+]c2c(C)cc(C)cc2C)c(C)c1

>  <unit.annotation>
µM

>  <reported>
2.23

$$$$

Recorded TGI (compound COc1ccc(NC(=O)c2ccc(C(F)(F)F)nc2Nc2ccc(Cl)cc2C)cc1Cl ): 21.3

====

Tested on: SK-OV-3 ovarian
Experiment: NCI tumour cell line growth inhibition, 48 h
molecules and their reported TGI

>  <molecule>
CC1=C/C(=N\NS(=O)(=O)c2ccc([N+](=O)[O-])cc2)CC(C)(C)C1

>  <reported>
> 100 µM

$$$$
>  <molecule>
NS(=O)(=O)c1ccc(N=Nc2ccc(O)cc2)cc1

>  <reported>
> 100 µM

$$$$

--- query ---
Value of TGI reported for the molecule CC1CCCc2c1n[nH]c2CC1CC(=O)NC(=O)C1 (stereo not drawn) is > 100 µM

====

System: SN12C renal
Experiment: NCI tumour cell line growth inhibition, 48 h
value.type: TGI

Record excerpt, results attached:
>  <compound.string>
COc1ccc(/C=C/c2cc(OC)c(OC)c(OC)c2)cc1OC

>  <TGI>
> 100 µM

$$$$
>  <compound.string>
CCc1cc2c(cc1C(=O)CCC(=O)O)CC1(C2)Cc2cc(CC)c(C(=O)CCC(=O)O)cc2C1

>  <TGI>
> 100 µM

$$$$
>  <compound.string>
C=C(C)[C@@H]1C/C=C(/COC(C)=O)CC[C@H]2O[C@@]2(C)CC/C=C(\C)CC1

>  <TGI>
> 100 µM

$$$$

Now examine the next entry.
TGI measured on CC[C@H](C)[C@H](NC(=O)c1ncccn1)C(=O)N(C)[C@H](C[C@@H](OC(C)=O)c1nc(C(=O)N[C@@H](Cc2ccccc2)C[C@H](C)C(=O)OC)cs1)C(C)C = > 25 µM
